# testDescription: viability loss with induced miR-34 in A549 – imaging, A549 dox-inducible miR-34, nuclei and caspase counts, primary screen (AID 1347080); further: test concentration not given here
# conditionInfo: A549 miR-34 inducible, Hoechst nuclei count, 48 h; measured here: relative caspase fold change +Dox/-Dox
Label class 1 when fold change is at or above 1; otherwise label class 0.

Is fold change at least 1? Consider CCN1CC(C)n2c(c(O)c3c(=O)n(Cc4ccc(F)c(Cl)c4)nc(C(=O)NC)c32)C1=O (stereo not given) class 0

# bool: fold change of `FC(F)(F)c1ccc(C=Cc2nc(COc3ccc(CCCCn4ccnn4)cc3)co2)cc1` >= 1 class 1

Could you please find out whether CCC1C(=O)N(C)c2cnc(Nc3ccc(C(=O)NC4CCC(N5CCN(CC6CC6)CC5)CC4)cc3OC)nc2N1C(C)C (stereo not given) has fold change that meets 1 or exceeds it? class 0

Dear colleague, could you confirm whether CCC(NC(=O)C(C)NC)C(=O)N1CC(O)CC1Cc1c(-c2[nH]c3cc(F)ccc3c2CC2CC(O)CN2C(=O)C(CC)NC(=O)C(C)NC)[nH]c2cc(F)ccc12 (stereo not given) has fold change at or above 1? class 0
